Examples of variants with documented 8OG:A repair function score follow.
B1: library; numbered along this chain (parent)
chain: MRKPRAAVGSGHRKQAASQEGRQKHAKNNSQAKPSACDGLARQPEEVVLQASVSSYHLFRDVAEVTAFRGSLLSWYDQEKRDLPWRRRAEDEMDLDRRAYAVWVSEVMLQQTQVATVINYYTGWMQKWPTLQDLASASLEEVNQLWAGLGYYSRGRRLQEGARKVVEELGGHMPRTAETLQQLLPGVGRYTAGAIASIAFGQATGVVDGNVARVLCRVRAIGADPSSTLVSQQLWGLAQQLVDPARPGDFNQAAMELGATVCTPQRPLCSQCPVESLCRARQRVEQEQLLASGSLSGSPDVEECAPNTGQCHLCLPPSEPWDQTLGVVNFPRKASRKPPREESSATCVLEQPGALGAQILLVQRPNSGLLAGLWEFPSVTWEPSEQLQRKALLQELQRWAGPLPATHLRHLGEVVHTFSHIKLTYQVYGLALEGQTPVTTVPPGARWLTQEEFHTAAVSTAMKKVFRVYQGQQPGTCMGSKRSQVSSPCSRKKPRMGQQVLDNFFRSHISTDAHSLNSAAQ

variants of: B1; assay: 8OG:A repair function score (normalized; synonymous = 0, nonsense = -1) (normalized log-likelihood score); higher = more repair activity (WT-like); conditions: with 8OG:A DNA repair reporter (GFP) in HEK-293 MUTYH KO cells;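 also: cells sorted at 72 h after reporter transfection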
Lab note: record just the number, no unit beside it.

Solved entries:
Exercise: Bench note: what 8OG:A repair function score did `Q110F` show?
Solution: -1.24

Exercise: Try this variant too: `Q232K`
Solution: -0.0471

Exercise: Try this variant too: `S510M`
Solution: -0.0272

Exercise: Try this variant too: `S54Y`
Solution: 0.00243

Exercise: Try this variant too: `A513E`
Solution: -0.0288

Further cases:
Exercise: Bench note: what 8OG:A repair function score did `C347D` show?
Solution: -1.26

Exercise: Try this variant too: `G434K`
Solution: 0.22

Exercise: Try this variant too: `Q111K`
Solution: -0.553

Exercise: Try this variant too: `K493W`
Solution: 0.00262

Exercise: Try this variant too: `Q484M`
Solution: 0.0126
